tested on: relapsed AML cells; assay: Drug sensitivity assay, 1,536-well, 3-day culture with individual approved drugs at 10 μM, viability by alamarBlue; format: cell-based, human; settings: number of relapsed AML cases out of 18 tested with >70% cell death; 10 μM, 3-day culture
Where a name gives a salt, the structure may show the parent alone.
# reported #Cases >70% cell death; entries follow
Answer with a number only.

> print(dat)
                                   molecule  readout.number
1  C[C@H]1COc2c(C3(N)CC3)c(F)cc3c(=O)c(C(=O)O)cn1c23               1
2  COCCCC/C(=N\OCCN)c1ccc(C(F)(F)F)cc1 [FLUVOXAMINE MALEATE]               1
3  O=C1CC2(CCCC2)CC(=O)N1CCNCC1COc2ccccc2O1 (stereo not drawn) [BINOSPIRONE MESYLATE]               1
4  CC1=C(C)C(=O)C(C(CCCCCC(=O)O)c2ccccc2)=C(C)C1=O (stereo not drawn)               1
5  NC(=O)Nc1cc(-c2cccc(F)c2)sc1C(=O)N[C@H]1CCCNC1              14

Shifting focus to the molecule that follows.
-- ask Returns the measured #Cases >70% cell death for the input molecule. Input: Cc1ccc(S(=O)(=O)NC(=O)NN2CC3CCCC3C2)cc1 (stereo not drawn) [GLICLAZIDE]
-- reply 1
